Listed here are compounds together with their documented MIC.
# Tested on: Candida albicans v47a3
# PROTOCOL_DESCRIPTION: Sensitivity to conventional antimycotics, broth dilution method
# Format: cell-based
# CONDITION_SUMMARY: V47A3, MIC = 50% growth inhibition, broth dilution according to EUCAST E.DEF 7.3.2, read-out: MICs

COMPOUND	TESTED_SYSTEM	MIC
Nc1[nH]c(=O)ncc1F	Candida albicans v47a3	≤ 0.06 µg/mL
OC(Cn1cncn1)(Cn1cncn1)c1ccc(F)cc1F	Candida albicans v47a3	8 µg/mL
CC[C@@H]([C@H](C)O)n1ncn(-c2ccc(N3CCN(c4ccc(OC[C@@H]5CO[C@@](Cn6cncn6)(c6ccc(F)cc6F)C5)cc4)CC3)cc2)c1=O	Candida albicans v47a3	0.12 µg/mL
CCC(C)n1ncn(-c2ccc(N3CCN(c4ccc(OCC5COC(Cn6cncn6)(c6ccc(Cl)cc6Cl)O5)cc4)CC3)cc2)c1=O (centres unmarked)	Candida albicans v47a3	0.12 µg/mL
C[C@@H](c1ncncc1F)[C@](O)(Cn1cncn1)c1ccc(F)cc1F	Candida albicans v47a3	0.5 µg/mL
